All figures here come from patent US8188089B2.

- System: KB-VIN (multidug-resistant KB subline)
- protocol-description: Cell growth inhibition assay (SRB), Example 2, KB-VIN
- Format: cell-based, human
- cond: Homo sapiens, KBVIN, 72 h, Table 6; 72-h continuous treatment
readout-label: EC50

These solved cases illustrate the format of a correct answer.
{"columns": ["compound", "EC50"],
 "data": [
  ["CC[C@H]1CN2CCc3cc(OC)c(OC)cc3[C@@H]2C[C@@H]1C[C@H]1NCCc2cc(OC)c(OC)cc21 [Emetine, reference compound]", "> 2 µM"],
  ["CC[C@]1(O)C[C@H]2CN(CCc3c([nH]c4ccccc34)[C@@](C(=O)OC)(c3cc4c(cc3OC)N(C=O)[C@H]3[C@@](O)(C(=O)OC)[C@H](OC(C)=O)[C@]5(CC)C=CCN6CC[C@]43[C@@H]65)C2)C1 [Vincristine, reference compound]", "5.3 µM"],
  ["COc1cccc2c1C(=O)c1c(O)c3c(c(O)c1C2=O)C[C@@](O)(C(=O)CO)C[C@@H]3O[C@H]1C[C@H](N)[C@H](O)[C@H](C)O1 [Doxorubicin, reference compound]", "> 4 µM"]
]}

Next up:
Query :: Fill in the blank: the reported EC50 of COc1cc([C@@H]2c3cc4c(cc3[C@@H](O[C@@H]3O[C@@H]5CO[C@@H](C)O[C@H]5[C@H](O)[C@H]3O)[C@H]3COC(=O)[C@H]23)OCO4)cc(OC)c1O [Etoposide (VP-16), Etoposide, reference compound] is ____.
Result :: > 10 µM

* * *

Please respond with reported EC50 for every item in the list.
- Test system: KB-VIN (multidug-resistant KB subline)
- protocol-description: Cell growth inhibition assay (SRB), Example 2, KB-VIN
- Assay type: cell-based, human
- cond: Table 6; 72-h continuous treatment; hydrochloride
Structures can show the parent of a compound that is named as a salt.
One number for each entry, in µM.

{"columns": ["compound", "EC50 (µM)"],
 "data": [
  ["COc1ccc2c(CNCCCCCCO)cc3cc4c(cc3c2c1)OCO4.Cl [Compound 22b, hydrochloride]", 0.16],
  ["COc1ccc2c(CN3CCC(CO)CC3)cc3cc4c(cc3c2c1)OCO4 [Compound 24b, hydrochloride]", 0.04]
]}

Continue with the next compound.
Query :: Param readout= EC50; system= KB-VIN (multidug-resistant KB subline); entry= COc1ccc2c(CN3CCC(CCO)CC3)cc3cc4c(cc3c2c1)OCO4.Cl [Compound 32b, hydrochloride] ; returns value.
Result :: 0.2
